Measurement protocol: Human HepG2 cell viability assay in 384 well format
Type: toxicity, cell-based
Set-up: dose 125 nL, time 70.5 hour; concentration not given beside the values
Measurement setup: HepG2 cells, read-out: Inhibition
Reported endpoint: cytotoxicity at 70.5 h (%)

1. C=C(C)COc1ccc(C(=O)NCCn2c(C)cc(C)nc2=O)cc1 = -6.24
2. O=C1CN(CCS(=O)(=O)c2ccc(Cl)cc2)CCN1 = -11.9
3. Cc1ncsc1CN(C)C(=O)C(CC(C)C)N1CCCCC1=O (stereo unspecified) = -2.15
4. Cc1cc2c(cc1Cl)C=CC1(CCN(CC(=O)N3CCCC3)CC1)O2 = 2.51
5. CC(=O)N1CCCN(C2CCCCc3ccccc32)CC1 (stereo unspecified) = -3.31
6. CCOc1ccc(CNCc2cccnc2N(C)C)cc1 = -5.74

* * *

Measured cytotoxicity at 70.5 h by item
Measurement protocol: Human HepG2 cell viability assay in 384 well format
Type: toxicity, cell-based
Set-up: dose 125 nL, time 70.5 hour; concentration not given beside the values
Measurement setup: HepG2 cells, read-out: Inhibition
Reported endpoint: cytotoxicity at 70.5 h (%)

1) COCCOc1ccc(NC(=O)N(C(C)C)C2CC2)cn1 = -3.25
2) CCN(Cc1cnn(C)c1)C[C@H]1CC[C@@H](Cc2ccc(OC)nc2)O1 = -8.42
3) O=C(CCc1cnn(-c2ccccc2)c1)N1CCCC(n2cccn2)C1 (stereo unspecified) = 6.67
4) CN(C)C(=O)Cn1c(C2CC2)c(CN2CCOCC2)c2cccnc21 = -1.8
5) Cc1cc(N2CCC(NC(=O)C3CC3)CC2)nc(-c2ccncc2)n1 = -5.8
6) O=C(c1ccsc1)N1CCC(Nc2cccnn2)CC1 = -3.37
7) CCN1CCN(c2ccc(C(=O)NC(C)CCOC)cc2)CC1 (stereo unspecified) = 23.2
8) O=C(C1CC(F)(F)C1)N1CC[C@H]2OCC[C@@]2(COCC2CC2)C1 = -1.76
9) O=C1N(c2cccnc2)CCC12CCCN(Cc1ccco1)C2 (stereo unspecified) = -3.89
10) Cn1nc(COCC2CC2)c2c1CCN(C(=O)c1ccno1)C2 = -10.9
11) O=C(Cc1ccsc1)NCCc1ccoc1 = -8.57
12) COc1cccc(S(=O)(=O)CCN2CCn3c(C)nnc3C2)c1 = 1.41
13) COCCN1C(=O)CO[C@@H]2CN(S(=O)(=O)c3ccccc3)C[C@H]21 = 5.06
14) O=C(N1CCCC(n2cncn2)C1)C1(c2cccc(F)c2)CC1 (stereo unspecified) = -7.31
15) CC(C)N(Cc1cccc(F)c1)Cc1nc2c(cnn2C)c(=O)[nH]1 = 0.718
16) CC(C)C(=O)N1CC[C@H]2N(C)CC[C@@]2(C(=O)Nc2ccccc2)CC1 = -10.2
17) CC(=O)c1c(C)cc(C)c(CS(=O)(=O)c2nccn2C)c1C = 8.95
18) O=C(CCN1CCCO1)N1CC[C@@H](CNC(=O)N2CCCC2)[C@H](O)C1 = 14
19) Cn1nc2c(cc1=O)CN(CCN1CCCC1=O)CC2 = -1.09
20) OC(CNCCn1cccn1)COc1ccc(F)cc1 (stereo unspecified) = 5.18
21) Cc1nc(CN2CCCn3nc(CNC(=O)C4CCC4)cc3C2)co1 = 0.506
22) CCC(O)Cn1cc(C2=CCN(Cc3cc(O)nc(C)n3)CC2)cn1 (stereo unspecified) = 10.8
23) CNC(=O)C1Cn2ccnc2C2(CCN(C(=O)c3ccoc3C)CC2)O1 (stereo unspecified) = -5.12
24) c1ccc(-n2ncc(CNC3CCc4ncnn4C3)n2)cc1 (stereo unspecified) = -10.4
25) Cc1cc(NC(=O)Cc2ccccc2O)cnc1N1CCCCC1 = -12.3
26) O=C(c1csc(-c2ccco2)n1)N1CCN2CCCCC2C1 (stereo unspecified) = -4.49
27) CCN(CC)S(=O)(=O)NC(=O)c1cc(C)n(-c2ccccc2)n1 = 10.6
28) CC(C)n1ccc2cc(C(=O)Nc3nc[nH]n3)ccc21 = -15.9
29) Cc1nc2cc(O)nn2c(C)c1CCC(=O)NCCCC(C)C = -3.79
30) c1cnc(N2C[C@H]3CCN(Cc4ccncc4)C[C@H]3C2)nc1 = -7.09
31) COc1cc(OC)cc(N2CCC(NC(=O)c3ccc[nH]3)CC2)c1 = -7.63
32) CCCOc1ccccc1CN[C@@H]1CCC[C@H]1Cc1cc(C)no1 = 23.6
33) O=C(COc1ccccc1)NCCNC(=O)c1scnc1Cl = -11.8
34) COc1ccc(C(=O)Cn2cnnc2[S+](C)[O-])cc1Cl (stereo unspecified) = -3.44
35) Cc1nn(C)c(C)c1C1CCCN1Cc1nnc(C2CC2)n1C (stereo unspecified) = -1.77
36) CO[C@H]1CCN(S(=O)(=O)c2cn(C)cn2)[C@H]1Cc1ccccc1 = 0.174
37) COCc1cccc(NC(=O)NCCCN(C)S(C)(=O)=O)c1 = -10.1
38) CC(=O)Nc1nc(CNc2ccccc2CCC(F)(F)F)cs1 = -12
39) COc1ccc(C(=O)N2CC[C@@H]3[C@H](CC2)N(C)CCS3(=O)=O)cc1 = -7.15
40) CCCn1ncc(C(=O)N2CCN([C@H]3CCCC[C@@H]3O)CC2)c1C = -0.657
41) CCS(=O)(=O)N1CCCC2(CCCN2Cc2cccc(F)c2)C1 (stereo unspecified) = -8.06
42) CN(C1CCCCC1)S(=O)(=O)N1CCN(Cc2ccco2)CC1 = -7.86
43) CCC(CO)N(Cc1ccccn1)Cc1ccc(-c2ccn[nH]2)s1 (stereo unspecified) = -14
44) Cc1ccc2c(-c3nc4c([nH]3)CCNC4C(=O)O)cccc2n1 (stereo unspecified) = -0.899
45) C[C@H]1C(=O)NC[C@H]2CN(Cc3ccccc3)C[C@H]21 = -2.5
46) COCCC(=O)N1CCC2(COCc3cnc(N(C)C)nc32)C1 (stereo unspecified) = -8.65

* * *

Measurement protocol: Human HepG2 cell viability assay in 384 well format
Type: toxicity, cell-based
Design: dose 125 nL, time 70.5 hour; concentration not given beside the values
Measurement setup: HepG2 cells, read-out: Inhibition
Measured cytotoxicity at 70.5 h by item
Reported endpoint: cytotoxicity at 70.5 h (%)

1. Cc1cc(N2C[C@H](C3CC3)[C@@H](N)C2)nc(N2CCCCC2)n1 = 3.53
2. Cc1nc(C)n(CC2CCCN(CC(=O)Nc3cc(C)on3)C2)n1 (centres undefined) = -2.38
3. Cc1csc(NC(=O)c2cnc(C3CCCN3)cn2)n1 (centres undefined) = -13.1
4. CSc1cc2c(cc1NC(=O)NCC(C)(C)C(N)=O)OCCO2 = -1.42
5. CC(C)C1SCC(=O)Nc2c1cnn2-c1ccc(Cl)cc1F (centres undefined) = 0.678
6. CC(C)NC(=O)C(c1ccccc1)N1CCn2c(nnc2C2CC2)C1 (centres undefined) = 2.95
7. CCC(C(=O)N(C)Cc1cc(COC)[nH]n1)n1cccn1 (centres undefined) = -11.5
8. CCOc1ncccc1NC(=O)c1ccc(C)s1 = -7.78
9. CCc1cnc(CN(C)C2CCN(CC(=O)Nc3cc(C)on3)C2)o1 (centres undefined) = 11.1
10. CC(C)=CCC1(C(=O)O)CCCN(CCC(=O)NC2CC2)C1 (centres undefined) = -25.9
11. Cc1ccc(S(N)(=O)=O)cc1C(=O)NCC1Cc2ccccc2O1 (centres undefined) = -3.82
12. Cc1cnn(CCC(=O)N2CCCC(c3cc(C)[nH]n3)C2)c1 (centres undefined) = 49
13. COc1c(NC(=O)C(C)CCOc2ccccc2)c(C)nn1C (centres undefined) = 7.42
14. Cc1cc(CN2CCc3nn(C)c(=O)cc3C2)on1 = 3.7
15. O=S1(=O)c2cccnc2OC(COc2ccccc2)CN1CC1CC1 (centres undefined) = -2.28
16. O=C1COc2ccc(Br)cc2CN1CC1CC1 = -16.7
17. COc1cccc(CN2C[C@@H]3COC[C@]3(CNC(=O)C3CC3)C2)c1 = -9.15
18. CN1CCN(C(=O)N2CC[C@@](O)(c3ccccc3)[C@H]3CCCC[C@@H]32)CC1 = -5.89
19. CCC(=O)N1CCCC1c1ccsc1 (centres undefined) = -5.78
20. CCN(Cc1ccc2c(c1)OCO2)S(=O)(=O)N(C)C = 0.18
21. CC(=O)Nc1nc(C(=O)NC(C)c2ccc(F)cc2)cs1 (centres undefined) = -13.6
22. COc1ccc(CN(C)C(=O)NC(C)c2nncn2C)cc1F (centres undefined) = -6.21
23. O=C(c1ccc(-c2nc[nH]n2)cc1)N1CCOC(C(F)(F)F)C1 (centres undefined) = 23.3
24. Cc1ccc(CN2CC[C@H]3OCC[C@@H](c4nc(C)no4)[C@H]3C2)cc1 = -11.4
